- System: MV4-11 cells
- Test name: MV4-11 6-day cell growth CTG (CellTiter-Glo) assay
- Type: cell-based
- Condition set: Homo sapiens, 144 h, 6 days
# maps each entry to its IC50

>  <Compound>
Nc1ncnc2c1ncn2Cc1c(OCCC[C@@H](N)Cn2cccn2)ccc(Cl)c1Cl [Example 49]

>  <IC50>
> 3000 nM

$$$$
>  <Compound>
COc1nc(N)c2ncn(Cc3c(Cl)cc(Cl)cc3OCCC[C@@H](N)C(=O)O)c2n1 [Example 27]

>  <IC50>
> 3000 nM

$$$$
>  <Compound>
CCOC(=O)[C@H](N)CCCOc1cc(Cl)cc(Cl)c1Cn1cnc2c(N)ncnc21 [Example 32]

>  <IC50>
< 2000 nM

$$$$

(Q) Answer with the recorded IC50 for the compound listed here: Nc1ncnc2c1ncn2Cc1c(OCCC[C@@H](N)CO)ccc(Cl)c1Cl [Example 45]
(A) 2000 to 3000 nM

(Q) Answer with the recorded IC50 for the compound listed here: Nc1ncnc2c1ncn2Cc1c(OCCC[C@@H](N)c2nc[nH]n2)ccc(Cl)c1Cl [Example 48]
(A) < 2000 nM

(Q) Answer with the recorded IC50 for the compound listed here: CCOC(=O)[C@H](N)CCCOc1ccc(Cl)c(Cl)c1Cn1cnc2c(N)ncnc21 [Example 29]
(A) < 2000 nM

(Q) Answer with the recorded IC50 for the compound listed here: Nc1ncnc2c1ncn2Cc1c(OCCC[C@@H](N)C(=O)NC2CC2)ccc(Cl)c1Cl [Example 42]
(A) < 2000 nM

(Q) Answer with the recorded IC50 for the compound listed here: Nc1ncnc2c1ncn2Cc1c(OCCC[C@@H](N)C(=O)O)ccc(Cl)c1Cl [Example 23]
(A) 2000 to 3000 nM

(Q) Answer with the recorded IC50 for the compound listed here: CSC[C@H](N)CCCOc1ccc(Cl)c(Cl)c1Cn1cnc2c(N)ncnc21 [Example 52]
(A) > 3000 nM

(Q) Answer with the recorded IC50 for the compound listed here: Nc1ncnc2c1ncn2Cc1c(OCCC[C@@H](N)c2nnco2)ccc(Cl)c1Cl [Example 51]
(A) > 3000 nM

(Q) Answer with the recorded IC50 for the compound listed here: COCCOC[C@H](N)CCCOc1ccc(Cl)c(Cl)c1Cn1cnc2c(N)ncnc21 [Example 47]
(A) > 3000 nM

(Q) Answer with the recorded IC50 for the compound listed here: CS(=O)(=O)NC(=O)[C@H](N)CCCOc1ccc(Cl)c(Cl)c1Cn1cnc2c(N)ncnc21 [Example 43]
(A) < 2000 nM

(Q) Answer with the recorded IC50 for the compound listed here: CN(C)C[C@H](N)CCCOc1ccc(Cl)c(Cl)c1Cn1cnc2c(N)ncnc21 [Example 53]
(A) > 3000 nM

(Q) Answer with the recorded IC50 for the compound listed here: NC(=O)[C@H](N)CCCOc1ccc(Cl)c(Cl)c1Cn1cnc2c(N)ncnc21 [Example 39]
(A) < 2000 nM

(Q) Answer with the recorded IC50 for the compound listed here: Cc1nnc([C@H](N)CCCOc2ccc(Cl)c(Cl)c2Cn2cnc3c(N)ncnc32)s1 [Example 50]
(A) > 3000 nM

(Q) Answer with the recorded IC50 for the compound listed here: COC[C@H](N)CCCOc1ccc(Cl)c(Cl)c1Cn1cnc2c(N)ncnc21 [Example 1]
(A) 2000 to 3000 nM

(Q) Answer with the recorded IC50 for the compound listed here: COCCNC(=O)[C@H](N)CCCOc1ccc(Cl)c(Cl)c1Cn1cnc2c(N)ncnc21 [Example 41]
(A) < 2000 nM

(Q) Answer with the recorded IC50 for the compound listed here: COC[C@H](N)CCCOc1ccc2cc(Br)ccc2c1Cn1cnc2c(N)ncnc21 [Example 20]
(A) > 3000 nM
